assay: TOR pathway RTG branch CIT2 reporter changes – S. cerevisiae, GFP fusion, multiplex flow cytometry, primary screen (AID 1870);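 further: barcoded CIT2-GFP strain pooled with four other GFP strains with rapamycin as positive control; median GFP fluorescence per well over plate mean of DMSO wells so 100% = DMSO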; settings: S. cerevisiae CIT2-GFP expression, 3 h, at 10 µM, hits give high values
property: percent response of DMSO control (%)
# unit: % | format: bare number

Example cases with answers are listed next.
{"compound": "O=C(CN1C(=O)c2ccccc2S1(=O)=O)Nc1ccccc1", "result": 112}
{"compound": "CN(C)c1ccc(Nc2c3c4c(cccc4n(C)c2=O)C(=O)c2ccccc2-3)cc1", "result": 111}
{"compound": "COc1cc(CNc2nnnn2C)ccc1OCc1ccc(F)cc1Cl", "result": 98.2}
{"compound": "O=C1OC(c2ccccc2)=C/C1=C/c1cccs1", "result": 105}
{"compound": "c1ccc(CC2=NCCN2)cc1", "result": 100}
{"compound": "Cc1ccnc2c1NC(=O)c1cccnc1N2C1CC1", "result": 115}
{"compound": "O=C(O)C1[C@H]2C(=O)N(C3CCCC3)C[C@]23C=C[C@H]1O3 (some centres not stated)", "result": 101}
{"compound": "CCc1ccc(/C=C2\\Oc3cc(OC(=O)N4CCOCC4)ccc3C2=O)cc1", "result": 83.4}
{"compound": "COc1ccc(Br)cc1C(=O)Nc1ccc(C(=O)O)cc1", "result": 88.4}
{"compound": "COC(=O)CSc1nc2ccc(N)cc2s1", "result": 104}

Query: Please give measured percent response of DMSO control of the following entry: N/C(=N\OC(=O)CCCOc1ccc(Cl)cc1Cl)c1ccncc1
Reply: 108

Query: Tell me its percent response of DMSO control given CC(C)(C)N(Cc1ccccc1)C(=O)c1ccc(Br)o1 as the entry.
Reply: 95.7
